# STUDY TARGET: Neuronal acetylcholine receptor; alpha3/beta4 (Homo sapiens, UniProt P30926+P32297)
# Sequence (P30926 whole entry): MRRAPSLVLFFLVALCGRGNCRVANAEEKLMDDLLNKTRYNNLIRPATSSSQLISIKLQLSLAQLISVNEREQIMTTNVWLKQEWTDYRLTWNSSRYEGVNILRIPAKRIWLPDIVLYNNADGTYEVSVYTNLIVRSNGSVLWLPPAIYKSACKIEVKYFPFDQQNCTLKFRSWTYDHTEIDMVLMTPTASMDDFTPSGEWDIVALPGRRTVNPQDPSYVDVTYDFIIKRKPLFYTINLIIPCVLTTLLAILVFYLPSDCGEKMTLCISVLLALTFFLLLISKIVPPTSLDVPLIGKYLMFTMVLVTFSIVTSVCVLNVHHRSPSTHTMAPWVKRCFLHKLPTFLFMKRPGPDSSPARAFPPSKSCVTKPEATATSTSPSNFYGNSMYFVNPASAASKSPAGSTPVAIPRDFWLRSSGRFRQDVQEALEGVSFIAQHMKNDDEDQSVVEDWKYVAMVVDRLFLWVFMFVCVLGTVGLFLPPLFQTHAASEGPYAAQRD
# Sequence (P32297 whole entry): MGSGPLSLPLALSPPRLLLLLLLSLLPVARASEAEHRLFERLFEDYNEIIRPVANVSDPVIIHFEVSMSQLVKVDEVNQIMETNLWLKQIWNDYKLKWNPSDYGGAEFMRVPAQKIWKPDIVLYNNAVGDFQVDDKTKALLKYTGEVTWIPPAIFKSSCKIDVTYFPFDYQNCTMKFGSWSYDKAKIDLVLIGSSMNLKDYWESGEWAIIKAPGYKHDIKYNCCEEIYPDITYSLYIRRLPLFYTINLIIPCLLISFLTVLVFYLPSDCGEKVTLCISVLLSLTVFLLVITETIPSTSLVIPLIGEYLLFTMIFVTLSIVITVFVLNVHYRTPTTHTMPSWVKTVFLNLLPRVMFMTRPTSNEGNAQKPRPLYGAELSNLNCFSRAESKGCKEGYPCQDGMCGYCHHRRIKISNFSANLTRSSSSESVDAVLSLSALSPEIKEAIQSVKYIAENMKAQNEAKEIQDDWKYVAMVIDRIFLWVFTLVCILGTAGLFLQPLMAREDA
# METHOD DESCRIPTION: The compound was tested on recombinant human alpha3-beta4 cell lines of HUman embryonic kidney for nicotinic acetylcholine receptor agonist functional potency

>  <COMPOUND STRUCTURE STRING>
C#Cc1cncc([C@H]2CCCN2C)c1

>  <STUDY TARGET>
Neuronal acetylcholine receptor; alpha3/beta4 (Homo sapiens, UniProt P30926+P32297)

>  <UOM>
µM

>  <EC50>
68

$$$$

----------
# STUDY TARGET: Neuronal nicotinic acetylcholine receptor
# METHOD DESCRIPTION: Binding affinity at NAChRs was determined by measuring the displacement of ([3H]Nic) from a preparation of rat cortical membranes.
# Type: cell membranes, Membrane
Measured log10(IC50) of individual entries
PROPERTY: log10(IC50) (log10 of the value in nM)

>  <COMPOUND>
C#Cc1cncc([C@@H]2CCCN2C)c1

>  <log10(IC50)>
0.48

$$$$
>  <COMPOUND>
CCc1cncc(C2CCCN2C)c1 (stereo not given)

>  <log10(IC50)>
1.04

$$$$
>  <COMPOUND>
C#Cc1cncc([C@H]2CCCN2C)c1

>  <log10(IC50)>
1.88

$$$$
>  <COMPOUND>
C#Cc1cncc(C2CCCN2C)c1 (stereo not given)

>  <log10(IC50)>
0.66

$$$$
>  <COMPOUND>
CN1CCCC1c1cncc(Br)c1 (stereo not given)

>  <log10(IC50)>
1.28

$$$$

----------
# STUDY TARGET: Nicotinic acetylcholine receptor alpha2/beta4 (Homo sapiens, UniProt P30926+Q15822)
# Sequence (P02708 whole entry): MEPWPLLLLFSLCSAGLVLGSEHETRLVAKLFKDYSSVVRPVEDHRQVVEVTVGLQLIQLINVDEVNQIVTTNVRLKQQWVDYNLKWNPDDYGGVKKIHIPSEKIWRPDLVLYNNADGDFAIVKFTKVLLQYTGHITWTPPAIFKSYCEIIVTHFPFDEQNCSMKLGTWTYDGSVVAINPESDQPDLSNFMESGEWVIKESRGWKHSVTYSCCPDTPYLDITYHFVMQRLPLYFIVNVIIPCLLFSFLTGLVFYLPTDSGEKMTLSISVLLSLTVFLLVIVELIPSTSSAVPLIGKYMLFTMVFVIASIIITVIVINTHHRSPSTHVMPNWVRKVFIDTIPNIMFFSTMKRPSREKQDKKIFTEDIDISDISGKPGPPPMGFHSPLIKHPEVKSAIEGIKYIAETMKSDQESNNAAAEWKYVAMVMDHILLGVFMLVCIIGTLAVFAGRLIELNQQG
# Sequence (P30926 whole entry): as the sequence (P30926 whole entry) above
# METHOD DESCRIPTION: The compound was tested on recombinant human alpha2-beta4 cell lines of Human embryonic kidney for nicotinic acetylcholine receptor agonist functional potency
PROPERTY: EC50 (µM)

>  <COMPOUND STRUCTURE STRING>
CN1CCC[C@H]1c1cccnc1

>  <EXPERIMENTAL RESULT>
10

$$$$
>  <COMPOUND STRUCTURE STRING>
C#Cc1cncc([C@H]2CCCN2C)c1

>  <EXPERIMENTAL RESULT>
29

$$$$

----------
# STUDY TARGET: Muscle-type nicotinic acetylcholine receptor
# METHOD DESCRIPTION: The compound was tested on recombinant human alpha-1-beta-1-gamma-delta cell lines of […] for nicotinic acetylcholine receptor agonist functional potency
PROPERTY: EC50

>  <COMPOUND>
CN1CCC[C@H]1c1cccnc1 [NICOTINE]

>  <STUDY TARGET>
Muscle-type nicotinic acetylcholine receptor

>  <PROPERTY>
EC50

>  <EXPERIMENTAL RESULT>
65 µM

$$$$

----------
Reported IC50 by item:
# STUDY TARGET: Muscarinic acetylcholine receptor
# METHOD DESCRIPTION: Muscarinic acetylcholine receptor binding (rat cortical membranes) was determined by displacement of [3H]quinuclidinyl benzylate [3H]QNB)

>  <MOLECULE>
CN1CCCC1c1cncc(Br)c1 (stereo not given)

>  <IC50, µM>
1.6

$$$$
>  <MOLECULE>
C#Cc1cncc(C2CCCN2C)c1 (stereo not given)

>  <IC50, µM>
10.1

$$$$
>  <MOLECULE>
C#Cc1cncc([C@@H]2CCCN2C)c1

>  <IC50, µM>
8.9

$$$$
>  <MOLECULE>
C#Cc1cncc([C@H]2CCCN2C)c1

>  <IC50, µM>
4.5

$$$$
>  <MOLECULE>
CCc1cncc(C2CCCN2C)c1 (stereo not given)

>  <IC50, µM>
5.8

$$$$
